- Read-out: Macrophage colony-stimulating factor (MCSF), CSF1 (gene 1435)
- assay-comment: BSK_CASM3C_MCSF: BioMAP Diversity Plus: CASM3C Assay for Macrophage colony-stimulating factor (MCSF) Biomarker Activity (AID 2283044);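 note: M-CSF protein amount quantified by ELISA after 24 h exposure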
- settings: primary human coronary artery smooth muscle cells; actives raise or lower the signal
Calls of active or inactive are those of the source. Rule for the calls: active = hit-call score of the fitted dose curve at least 0.9, where 1 is the maximum; inactive = score below 0.9.
measure-name: AC50

>>> assay_value("CCOP(=S)(OCC)SCS(=O)(=O)C(C)(C)C")
"inactive"
>>> assay_value("Nc1ccc(N)cc1")
"inactive"
>>> assay_value("Cc1cc(Cl)ccc1N")
"inactive"
>>> assay_value("c1ccc(-c2cccc(-c3ccccc3)c2)cc1")
"inactive"
>>> assay_value("O=S(=O)(c1ccc(Cl)cc1)c1cc(Cl)c(Cl)cc1Cl")
"inactive"
>>> assay_value("Cc1cccc(OP(=O)(Oc2cccc(C)c2)Oc2cccc(C)c2)c1")
"0.139 µM (active)"
>>> assay_value("CCCCN(CCCC)C(=S)[S-].CCCCN(CCCC)C(=S)[S-].[Ni+2]")
"inactive"
>>> assay_value("c1ccc2sc(SNC3CCCCC3)nc2c1")
"inactive"
>>> assay_value("Cc1cc(Cl)ccc1OC(C)C(=O)O (stereo not given)")
"inactive"
>>> assay_value("CCOC(=O)CC(=O)CCl")
"20 µM (active)"
>>> assay_value("OC(Cc1ccccc1Cl)(Cn1cncn1)C1(Cl)CC1 (stereo not given)")
"inactive"
>>> assay_value("CC(C)(COCC1CO1)COCC1CO1 (stereo not given)")
"inactive"
>>> assay_value("CC(C=O)Cc1ccc2c(c1)OCO2 (stereo not given)")
"inactive"
>>> assay_value("O=C1C=CC(=O)c2ccccc21")
"5.16 µM (active)"
>>> assay_value("Cc1c([N+](=O)[O-])c(C)c([N+](=O)[O-])c(C(C)(C)C)c1[N+](=O)[O-]")
"inactive"
>>> assay_value("NC(=O)CCl")
"inactive"
>>> assay_value("OCCCCO")
"inactive"
>>> assay_value("Cc1ccccc1OP(=O)(Oc1ccccc1)Oc1ccccc1")
"inactive"
>>> assay_value("C=CC(Cl)CCl (stereo not given)")
"inactive"
>>> assay_value("O=C(Cc1ccccc1)OCCc1ccccc1")
"inactive"
>>> assay_value("O=C(CCl)NCO")
"inactive"
>>> assay_value("CC(C)O.CC(C)O.OCCN(CCO)CCO.OCCN(CCO)CCO.[Ti]")
"inactive"
>>> assay_value("CN(C)C(=S)S")
"inactive"
>>> assay_value("O=[N+]([O-])c1ccc(Nc2ccccc2)cc1")
"inactive"
>>> assay_value("O=C(O)COc1cc(Cl)c(Cl)cc1Cl")
"inactive"
>>> assay_value("Cc1cc(C(C)(C)c2ccc(O)c(C)c2)ccc1O")
"15.2 µM (active)"
>>> assay_value("Oc1c(Cl)cc(Cl)cc1Cl")
"inactive"
>>> assay_value("CCOC(=O)CCN(SN(C)C(=O)Oc1cccc2c1OC(C)(C)C2)C(C)C")
"20 µM (active)"
>>> assay_value("CCOC(=O)C(SP(=S)(OC)OC)c1ccccc1 (stereo not given)")
"20 µM (active)"
>>> assay_value("Cc1ccc2nc3sc(=O)sc3nc2c1")
"inactive"

###

- assay-comment: CCTE_Shafer_MEA_acute_spike_number: CCTE's Neural Acute Assay for Total Number of Spikes, Shafer Lab (AID 2284008)
Active and inactive are the calls of the source. Rule for the calls: active = hit-call score of the fitted dose curve at least 0.9, where 1 is the maximum; inactive = score below 0.9.
Possible outcomes: 1 for active, 0 for inactive

>>> label_class("Clc1cccc(Cl)c1Cl")
0
>>> label_class("N#Cc1cccnc1")
0
>>> label_class("CCCCCCCCCCCCc1cccc(S(=O)(=O)O)c1")
0
>>> label_class("CCCCOC(=O)COC(=O)c1ccccc1C(=O)OCCCC")
1

###

- measured-on: Androgen Receptor/SRC-1 Co-activator, AR (gene 367)
- assay-comment: OT_AR_ARSRC1_0480: Odyssey Thera (OT) 8-hour HEK293T Protein-Complementation Assay for Androgen Receptor/SRC-1 Co-activator (AID 2283354);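 note: hits raise the complementation signal above DMSO so AC50 marks enhancers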
Results filed as inconclusive are left out. Activity calls are given as the source filed them. How the source made its calls: active means hit-call score of the fitted dose curve at least 0.9, where 1 is the maximum; inconclusive means response in the unintended direction; inactive means score below 0.9.
Possible outcomes: active, inactive

>>> label_class("O=C(N[C@H]1CN2CCC1CC2)c1ccc2c(c1)OCCO2")
"inactive"
>>> label_class("N#CCC#N")
"inactive"
>>> label_class("Cc1cc(Cl)ccc1OCCCC(=O)O")
"inactive"
>>> label_class("O=[N+]([O-])c1ccc(Cl)c([N+](=O)[O-])c1")
"active"
>>> label_class("O=C(NC(=O)c1c(F)cccc1F)Nc1cc(Cl)c(OC(F)(F)C(F)C(F)(F)F)cc1Cl (configuration not stated)")
"inactive"
>>> label_class("O=C(O)COc1cc(Cl)c(Cl)cc1Cl")
"inactive"
>>> label_class("CC(=Cc1ccccc1)[N+](=O)[O-]")
"active"

###

- Tested on: Thyroperoxidase (TPO), gene 54314
- assay-comment: CCTE_Simmons_AUR_rTPO: CCTE's Amplex UltraRed Assay for Thyroperoxidase (TPO) Inhibition, Simmons Lab (AID 2283662)
Activity calls are given as the source filed them. The calls were made as follows: active = hit-call score of the fitted dose curve at least 0.9, where 1 is the maximum; inconclusive = response in the unintended direction; inactive = score below 0.9.
Possible outcomes: 1 (yes) for active, 0 (no) for inactive

>>> label_class("CCOP(=S)(OCC)O/N=C(\\C#N)c1ccccc1")
"1 (yes)"
>>> label_class("O=C(O)C1(c2ccc3c(c2)OC[C@H](Cc2ccc(-c4ccccc4)cc2)[C@H]3O)CCCC1")
"1 (yes)"
>>> label_class("O=C1c2ccccc2C(=O)C1C(=O)C(c1ccccc1)c1ccc(Cl)cc1 (stereo unspecified)")
"1 (yes)"
>>> label_class("O=C(NC(=O)c1c(F)cccc1F)Nc1ccc(Cl)cc1")
"1 (yes)"
>>> label_class("CCCSP(=S)(OCC)Oc1ccc(SC)cc1 (stereo unspecified)")
"0 (no)"
>>> label_class("CC(C)(C)c1ccccc1O")
"0 (no)"
>>> label_class("O=S1(=O)OC(c2cc(Br)c(O)c(Br)c2)(c2cc(Br)c(O)c(Br)c2)c2ccccc21")
"1 (yes)"
>>> label_class("COc1ccccc1N")
"1 (yes)"
>>> label_class("N#CCC#N")
"1 (yes)"
>>> label_class("CCOc1ccc(N)cc1")
"1 (yes)"
>>> label_class("CN(C)C(=S)S")
"1 (yes)"
>>> label_class("COc1ccc(N)cc1")
"1 (yes)"
>>> label_class("CN(N=O)C(N)=O")
"1 (yes)"
>>> label_class("COC(=O)Nc1cccc(OC(=O)Nc2cccc(C)c2)c1")
"1 (yes)"
>>> label_class("O=c1[nH]c(=O)n(Cl)c(=O)n1Cl")
"0 (no)"
>>> label_class("Nc1ccc(N)cc1")
"1 (yes)"

###

- Read-out: Tissue plasminogen activator (tPA), PLAT (gene 5327)
- assay-comment: BSK_BE3C_tPA: BioMAP Diversity Plus: BE3C Assay for Tissue plasminogen activator (tPA) Biomarker Activity (AID 2283041)
- settings: primary human bronchial epithelial cells; actives raise or lower the signal
Calls of active or inactive are those of the source. Rule for the calls: active = hit-call score of the fitted dose curve at least 0.9, where 1 is the maximum; inactive = score below 0.9.
measure-name: AC50

>>> assay_value("O=S(=O)(C(Cl)(Cl)Cl)C(Cl)(Cl)Cl")
"4.81 µM (active)"
>>> assay_value("CCCCCCCCCCCCc1cccc(S(=O)(=O)O)c1")
"3.92 µM (active)"
>>> assay_value("CCOP(=O)(OCC)SCCSCC")
"inactive"
>>> assay_value("CC(C)(COCC1CO1)COCC1CO1 (centres undefined)")
"inactive"
>>> assay_value("Clc1cccc(Cl)c1Cl")
"inactive"
>>> assay_value("O=C(O)COc1cc(Cl)c(Cl)cc1Cl")
"inactive"
>>> assay_value("Cc1cc(Cl)ccc1N")
"inactive"
>>> assay_value("O=[N+]([O-])c1ccc(Nc2ccccc2)cc1")
"inactive"
>>> assay_value("Cc1cc(C)cc(C)c1")
"inactive"
>>> assay_value("CCOP(=S)(OCC)OP(=S)(OCC)OCC")
"inactive"
>>> assay_value("N#CCCC(Br)(C#N)CBr (centres undefined)")
"9.86 µM (active)"
>>> assay_value("CCOC(=O)C(SP(=S)(OC)OC)c1ccccc1 (centres undefined)")
"inactive"
>>> assay_value("CCOP(=S)(OCC)SCS(=O)(=O)C(C)(C)C")
"inactive"
>>> assay_value("C=CC(Cl)CCl (centres undefined)")
"inactive"
>>> assay_value("N#Cc1cccnc1")
"inactive"
>>> assay_value("O=c1oc2ccccc2c(O)c1C(CC(O)c1ccc(-c2ccc(Br)cc2)cc1)c1ccccc1 (centres undefined)")
"0.837 µM (active)"
>>> assay_value("Cc1ccc2nc3sc(=O)sc3nc2c1")
"inactive"
>>> assay_value("CCC(C)(C#N)N=NC(C)(C#N)CC (centres undefined)")
"inactive"
>>> assay_value("Cc1cc(C(C)(C)c2ccc(O)c(C)c2)ccc1O")
"15.2 µM (active)"
>>> assay_value("Cc1ccc(OP(=O)(Oc2ccc(C)cc2C)Oc2ccc(C)cc2C)c(C)c1")
"3.86 µM (active)"
>>> assay_value("C#CCOC(=O)/C=C(C)/C=C/CC(C)CCCC(C)C (centres undefined)")
"inactive"
>>> assay_value("Nc1c(Oc2ccccc2)cc(O)c2c1C(=O)c1ccccc1C2=O")
"inactive"
>>> assay_value("CC(C)N(C(=O)CCl)c1ccccc1")
"inactive"
>>> assay_value("COCC(=O)N(c1c(C)cccc1C)[C@H](C)C(=O)OC")
"inactive"
>>> assay_value("[Cl][Sn]([c]1ccccc1)([c]1ccccc1)[c]1ccccc1")
"0.0792 µM (active)"
>>> assay_value("Cc1cccc(OP(=O)(Oc2cccc(C)c2)Oc2cccc(C)c2)c1")
"0.677 µM (active)"
>>> assay_value("O=C(Cc1ccccc1)OCCc1ccccc1")
"inactive"
>>> assay_value("OC(Cc1ccccc1Cl)(Cn1cncn1)C1(Cl)CC1 (centres undefined)")
"inactive"
>>> assay_value("Oc1cc(Cl)c(Cl)cc1Cl")
"12.9 µM (active)"
>>> assay_value("OCCCCO")
"inactive"
>>> assay_value("CCN(CC)C(=O)C(Cl)=C(C)OP(=O)(OC)OC")
"inactive"
>>> assay_value("Oc1c(Br)cc(Br)cc1Br")
"inactive"
>>> assay_value("O=S(=O)(c1ccc(Cl)cc1)c1cc(Cl)c(Cl)cc1Cl")
"inactive"
>>> assay_value("Cc1ccccc1OP(=O)(Oc1ccccc1C)Oc1ccccc1C")
"7.43 µM (active)"
>>> assay_value("CCCCOC(=O)COC(=O)c1ccccc1C(=O)OCCCC")
"inactive"
>>> assay_value("CC(C=O)Cc1ccc2c(c1)OCO2 (centres undefined)")
"inactive"
>>> assay_value("CC(C)O.CC(C)O.OCCN(CCO)CCO.OCCN(CCO)CCO.[Ti]")
"inactive"
>>> assay_value("CC(C)(C)c1ccccc1O")
"inactive"
>>> assay_value("c1ccc(-c2cccc(-c3ccccc3)c2)cc1")
"6.98 µM (active)"
